Value source: ChEMBL document CHEMBL5104118

# subject.of.test: Protein-glutamine gamma-glutamyltransferase (Homo sapiens, UniProt P21980)
# Sequence (P21980 whole entry): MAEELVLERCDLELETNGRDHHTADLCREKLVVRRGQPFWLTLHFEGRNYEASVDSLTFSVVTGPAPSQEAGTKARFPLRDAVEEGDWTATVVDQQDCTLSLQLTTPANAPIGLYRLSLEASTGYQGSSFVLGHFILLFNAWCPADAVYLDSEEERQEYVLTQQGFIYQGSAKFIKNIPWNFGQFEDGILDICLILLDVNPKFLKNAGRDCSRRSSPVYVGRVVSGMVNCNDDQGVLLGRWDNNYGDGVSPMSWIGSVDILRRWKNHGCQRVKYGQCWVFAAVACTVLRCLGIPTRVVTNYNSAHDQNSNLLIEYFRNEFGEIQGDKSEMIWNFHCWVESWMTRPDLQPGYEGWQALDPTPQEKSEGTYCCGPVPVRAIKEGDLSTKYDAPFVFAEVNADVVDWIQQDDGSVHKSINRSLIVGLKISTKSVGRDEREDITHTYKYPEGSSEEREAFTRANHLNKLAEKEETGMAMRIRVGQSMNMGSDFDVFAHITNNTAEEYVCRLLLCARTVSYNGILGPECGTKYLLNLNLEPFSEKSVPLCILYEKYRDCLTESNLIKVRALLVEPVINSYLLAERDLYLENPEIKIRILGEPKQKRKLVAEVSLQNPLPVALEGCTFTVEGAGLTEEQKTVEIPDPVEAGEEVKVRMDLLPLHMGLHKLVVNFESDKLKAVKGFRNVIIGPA
# protocol.summary: Inhibition of recombinant human TG2 expressed in Escherichia coli assessed as inhibition constant using Cbz-Glu(gamma-p-nitrophenyl ester)Gly (AL5) as substrate by colorimetric assay
# Ki values compiled below

chem.smiles	readout.kind	measured.value
C=CC(=O)NCCCCCC(=O)N1CCN(S(=O)(=O)c2cccc3c(N(C)C)cccc23)CC1	Ki	27.4 µM
C=CC(=O)NCC(=O)N1CCN(S(=O)(=O)c2cccc3c(N(C)C)cccc23)CC1	Ki	1.49 µM

Challenge: Return Ki measured with Protein-glutamine gamma-glutamyltransferase (Homo sapiens, UniProt P21980) given this compound: C=CC(=O)NCC(=O)N1CCN(C(=O)C23CC4CC(CC(C4)C2)C3)CC1
Response given: 3.2 µM

Challenge: Return Ki measured with Protein-glutamine gamma-glutamyltransferase (Homo sapiens, UniProt P21980) given this compound: C=CC(=O)NCCCCC(=O)N1CCN(C(=O)c2cccc3ccccc23)CC1
Response given: 142 µM

Challenge: Return Ki measured with Protein-glutamine gamma-glutamyltransferase (Homo sapiens, UniProt P21980) given this compound: C=CC(=O)NCC(=O)N1CCN(S(=O)(=O)c2cccc3ccccc23)CC1
Response given: 6.51 µM
